Data credit: ChEMBL document CHEMBL1201862

# Tested on: MCF7
# protocol.text: NCI tumour cell line growth inhibition, 48 h
The source made the active and inactive calls. Rule as the data show it: active = GI50 up to about 1.1 µM and inactive = higher.
Permitted responses: true for active, false for inactive

As a guide, the following entries are already answered.
compound	label.class
CN1N=C(c2ccncc2)OC1c1ccc(Cl)cc1Cl (stereo unspecified)	false
c1cc2c(ncc3cscc32)s1	false
O=C1NC(=S)N/C1=C\c1cccs1	false
Oc1ccc(-c2nc3ccc4ccccc4c3c3c2CCCC3)c(O)c1	false
CC(=O)OCC1OC(Nc2ccc3nc(C)n(-c4ccccc4)c(=O)c3c2)C(OC(C)=O)C(OC(C)=O)C1OC(C)=O (stereo unspecified)	false

Task: Tell me the recorded outcome of this test for C=C(C)COc1ccc2c(c1)CCC1C2CCC2(C)C(=O)/C(=N/O)CC12 (stereo unspecified) .
Result: false

Task: Tell me the recorded outcome of this test for CN=C(n1ccnc1)n1ccnc1 .
Result: false

Task: Tell me the recorded outcome of this test for O=C(c1ccccc1)c1c(-c2ccccc2)[nH]n(-c2ccc([N+](=O)[O-])cc2)c(=O)c1=O .
Result: false

* * *

# Test system: IGROV-1
# protocol.text: NCI tumour cell line growth inhibition, 48 h
Active and inactive are the calls of the source. No stated cut-off is given here; in the data, active = GI50 up to about 1.1 µM and inactive = higher.
Permitted responses: active, inactive

As a guide, the following entries are already answered.
molecule	measured.target	label.class
CCN1CCC(O)(/C=C/c2ccccc2)C(C(=O)/C=C/c2ccccc2)C1 (centres undefined)	IGROV-1	inactive
c1csc(-c2cc(-c3cccs3)c(-c3cccs3)s2)c1	IGROV-1	inactive
CC(SC1=CC(=O)c2c(O)ccc(O)c2C1=O)C(=O)O (centres undefined)	IGROV-1	inactive
CC(C)(O)/C=C/C(=O)[C@](C)(O)[C@H]1[C@H](O)C[C@@]2(C)[C@@H]3CC=C4[C@@H](C[C@H](O)C(=O)C4(C)C)[C@]3(C)C(=O)C[C@]12C	IGROV-1	active
COc1ccc(NC(=O)CC(=O)N/N=C/c2ccc(N(CCC#N)S(C)(=O)=O)cc2)cc1	IGROV-1	inactive
COC(=O)C1[C@@H](C(=O)OC)C12C=Cc1ccccc1C=C2 (some centres undefined)	IGROV-1	inactive
O=C1NC(N2CCCC(CO)C2)=N/C1=C\c1ccc(O)cc1 (centres undefined)	IGROV-1	inactive
Cc1nc2ccccc2c(-n2cccn2)c1CCn1cccn1	IGROV-1	inactive

Please find the next molecule below.
Task: Tell me the recorded outcome of this test for CCCCCCOP(=O)(OCCCCCC)C(NC(=O)OCC)(C(F)(F)F)C(F)(F)F .
Result: inactive

* * *

# Test system: Malme-3M
# protocol.text: NCI tumour cell line growth inhibition, 48 h
Calls of active or inactive are those of the source. No stated cut-off is given here; in the data, active = GI50 up to about 1.1 µM and inactive = higher.
property.label: GI50

Answered examples (5):
molecule	reported.value
COP(=O)(CC(=O)C1OC(OCc2ccccc2)C(OCc2ccccc2)C(OCc2ccccc2)C1OCc1ccccc1)OC (stereo unspecified)	9.1 µM (inactive)
CC(=O)C1(/N=N/c2ccc(S(N)(=O)=O)cc2)CCOC1=O (stereo unspecified)	> 100 µM (inactive)
CC(=O)C(=CNc1c(C)n(C)n(-c2ccccc2)c1=O)C(C)=O	> 100 µM (inactive)
Cc1nc2ccccc2c(-n2cccn2)c1CCn1cccn1	> 100 µM (inactive)
CC1(C)N=C(N)N=C(N)N1c1ccc(CCCCc2ccc(S(=O)(=O)F)cc2Cl)c(Cl)c1	4.05 µM (inactive)

The molecule listed as Cc1cc(C)c2c(=O)n(CN3CCN(c4ccccc4)CC3)sc2n1 shows GI50 equal to 37.2 µM (inactive)

The molecule listed as Oc1ccc(-c2nc3ccc4ccccc4c3c3c2CCCC3)c(O)c1 shows GI50 equal to 19.4 µM (inactive)

The molecule listed as Cn1cncc1CC1COC(=O)C1C(O)c1ccccc1 (stereo unspecified) shows GI50 equal to > 100 µM (inactive)

The molecule listed as NCC(O)CN.Oc1c(Cl)c(Cl)c(Cl)c(Cl)c1Cl shows GI50 equal to 17.5 µM (inactive)

The molecule listed as COc1cc(C=O)cc(/C=N/c2ccc(S(N)(=O)=O)cc2)c1O shows GI50 equal to 2.88 µM (inactive)

The molecule listed as CC1=CCC2CC1C(C(=O)c1c[nH]c3ccccc13)=NC2(C)C (stereo unspecified) shows GI50 equal to > 100 µM (inactive)

The molecule listed as C=CNC(=O)NC(=O)CSc1nc(=O)c(-c2ccccc2NC(=O)C(F)(F)F)n[nH]1 shows GI50 equal to 15.5 µM (inactive)

The molecule listed as O=C(O)C(Cc1cccs1)C(=O)O shows GI50 equal to > 100 µM (inactive)

The molecule listed as CCOC(=O)/C=C1\Oc2ccccc2C1(C)O (stereo unspecified) shows GI50 equal to > 100 µM (inactive)

The molecule listed as COc1nc(N=P(c2ccccc2)(c2ccccc2)c2ccccc2)cc(=O)[nH]1 shows GI50 equal to > 100 µM (inactive)

The molecule listed as CC1OC(=O)C(O)=C1O (stereo unspecified) shows GI50 equal to > 100 µM (inactive)

The molecule listed as [N-]=[N+]=C1N=CN=C1c1nc[nH]n1 shows GI50 equal to 10.9 µM (inactive)

The molecule listed as Cc1c(/N=N/c2ccc(Cl)cc2)c(C)n(C2OC(CO)C(O)C(O)C2O)c(=S)c1C#N (stereo unspecified) shows GI50 equal to 22.5 µM (inactive)

The molecule listed as C[C@H]1COC(c2ccccn2)=N1 shows GI50 equal to > 100 µM (inactive)

The molecule listed as Cc1ccccc1-c1c(N)nc(NC#N)nc1C(=O)Nc1ccccc1 shows GI50 equal to > 100 µM (inactive)

The molecule listed as Cc1cccc(NC(=S)N/N=C2\C(=O)Nc3ccccc32)c1 shows GI50 equal to 66.1 µM (inactive)

* * *

# System: RXF 631
# protocol.text: NCI tumour cell line growth inhibition, 48 h
Activity calls are given as the source filed them. No stated cut-off is given here; in the data, active = GI50 up to about 1.1 µM and inactive = higher.
property.label: GI50

The molecule listed as CCCN(CCCN)/[N+]([O-])=N\O shows GI50 equal to > 100 µM (inactive)

The molecule listed as O=C1c2ccccc2C(=O)c2sc(Nc3ccc([N+](=O)[O-])cc3)nc21 shows GI50 equal to 19.5 µM (inactive)

The molecule listed as Cc1ccccc1-c1c(N)nc(NC#N)nc1C(=O)Nc1ccccc1 shows GI50 equal to > 100 µM (inactive)

The molecule listed as CC1=N/C(=C/c2ccc3c(c2)OCO3)C(=O)O1 shows GI50 equal to > 100 µM (inactive)

The molecule listed as CC(=O)NC(CCCNC(=O)N(C)N=O)C(=O)NCc1ccccc1 (stereo unspecified) shows GI50 equal to > 100 µM (inactive)

The molecule listed as COC(=O)c1ccc(/C=C/S(=O)(=O)c2ccccc2)cc1 shows GI50 equal to > 100 µM (inactive)

* * *

# System: HCT-15
Listing of recorded GI50 by entry.

Answered examples (2):
compound	GI50
CCOC(=O)CCc1c(C(=O)OCC)[nH]c(/C=C2/NC(=O)C(C)=C2CC)c1C	3.47 µM
C=C(Br)CN(C)CC(=C)Br	> 100 µM

The compound listed as CC(C)C1=CC2=C(C(=O)C1=O)C13CCCC(C)(C)C1CC2OC3=O (stereo not given) shows GI50 equal to 12.8 µM

The compound listed as CC(=O)NC(CCCNC(=O)N(C)N=O)C(=O)NCc1ccccc1 (stereo not given) shows GI50 equal to > 100 µM

* * *

# Tested on: PC-3
# protocol.text: NCI tumour cell line growth inhibition, 48 h
Active and inactive are the calls of the source. Rule as the data show it: active = GI50 up to about 1.1 µM and inactive = higher.
Permitted responses: t (active), f (inactive)

As a guide, the following entries are already answered.
compound	measured.target	label.class
O=C(c1ccccc1)c1c(-c2ccccc2)[nH]n(-c2ccc([N+](=O)[O-])cc2)c(=O)c1=O	PC-3	f
CCCC(=O)Oc1c2ccsc2c(OC(=O)CCC)c2ccsc12	PC-3	t
COc1ccc(CCN2C(=O)C(=O)C(C(=O)c3ccccc3)C2c2ccccc2)cc1OC (centres undefined)	PC-3	f

Please find the next compound below.
Task: Tell me the recorded outcome of this test for COC1/C=C(C)/C=C/C(C)/C=C/C(=O)OC(/C(C)=C/C=C(\C)CNC(=O)[C@H](CO)NC=O)C(C)/C=C/C=C/C(OC)CC/C=C(C)/C=C/C1 (some centres undefined) .
Result: t

* * *

# System: M14
# protocol.text: NCI tumour cell line growth inhibition, 48 h
The source made the active and inactive calls. Cut-off read from the data, not from the text of the source: active = GI50 up to about 1.1 µM and inactive = higher.
property.label: GI50

Answered examples (5):
compound	property.label	reported.value
CCCNC(=O)Cn1c(C)cc2ccccc21	GI50	> 100 µM (inactive)
[N-]=[N+]=C1N=CN=C1c1nc[nH]n1	GI50	40.6 µM (inactive)
C=C(C)OCOCCOC	GI50	> 100 µM (inactive)
COc1cc(C=O)cc(/C=N/c2ccc(S(N)(=O)=O)cc2)c1O	GI50	3.92 µM (inactive)
Cc1ccc(C2[C@H]3C(=O)N(c4ccc(Cc5ccc(N6C(=O)[C@@H]7ON(c8ccccc8)C(c8ccc(C)cc8)[C@@H]7C6=O)cc5)cc4)C(=O)[C@H]3ON2c2ccccc2)cc1 (stereo not given in full)	GI50	91.6 µM (inactive)

The compound listed as CSCCC(NC(=O)OCc1ccccc1)NC(=O)OCc1ccccc1 shows GI50 equal to > 100 µM (inactive)

The compound listed as O=C(NCCNCCO)N/N=C/c1cccc([N+](=O)[O-])c1 shows GI50 equal to > 100 µM (inactive)

The compound listed as CCOC(=O)C1=COC(C)(C)CC1=O shows GI50 equal to > 100 µM (inactive)

The compound listed as CC1=C(C(=O)Nc2cccc(C(F)(F)F)c2)C(c2ccc(O)cc2)C(C(=O)Nc2cccc(C(F)(F)F)c2)=C(C)N1 shows GI50 equal to 14.9 µM (inactive)

The compound listed as NCC(O)CN.Oc1c(Cl)c(Cl)c(Cl)c(Cl)c1Cl shows GI50 equal to 19.7 µM (inactive)
